Provenance of the data: ChEMBL document CHEMBL3861952

- Species: Homo sapiens
- protocol summary: Selectivity index, ratio of IC50 for human recombinant MAOB to IC50 for human recombinant MAOA

>  <compound>
C#CCN(Cc1ccc2cccc(O)c2n1)C(C#N)CC1CCN(Cc2ccccc2)CC1 (configuration not stated)

>  <Ratio IC50>
> 8.2

$$$$
>  <compound>
C#CCN(Cc1ccc2cccc(O)c2n1)C(C#N)C1CCN(Cc2ccccc2)CC1 (configuration not stated)

>  <Ratio IC50>
> 9.8

$$$$
>  <compound>
C#CCN(Cc1ccc(O)c2ncccc12)C(C#N)CCC1CCN(Cc2ccccc2)CC1 (configuration not stated)

>  <Ratio IC50>
1.8

$$$$
>  <compound>
C#CCN(CCCC1CCN(Cc2ccccc2)CC1)Cc1ccc2cccc(O)c2n1

>  <Ratio IC50>
> 2.7

$$$$
>  <compound>
C#CCN(CCC1CCN(Cc2ccccc2)CC1)Cc1ccc2cccc(O)c2n1

>  <Ratio IC50>
> 2.8

$$$$
>  <compound>
C#CCN(Cc1ccc2cccc(O)c2n1)C(C#N)CCC1CCN(Cc2ccccc2)CC1 (configuration not stated)

>  <Ratio IC50>
> 9.9

$$$$
>  <compound>
C#CCN(Cc1ccc2cccc(O)c2n1)CC1CCN(Cc2ccccc2)CC1

>  <Ratio IC50>
> 2.2

$$$$
